Kindly supply the reported chromatographic logP values for the records listed here.
# Experiment Description: physchem
# Assay type: physicochemical
# Run Parameters: reverse-phase HPLC column (C 18), pH 3.4, HPLC, reverse-phase C 18, acidic range pH 3.4, 55° C.; table of compounds; read-out: logP (HCO2H)
Lab note: write the figure by itself, no unit.

Measured chromatographic logP, CNC(=O)c1ccc(-c2cccnc2)o1 [Compound 31] : 0.42

// sample CCCNC(=O)c1ccc(-c2cccnc2)o1 [Compound 32] , its chromatographic logP was 0.83

chromatographic logP measured on O=C(NCC(F)(F)F)c1cc(-c2cccnc2)no1 [Compound 40] = 1.33

The recorded chromatographic logP for entry O=C(NCC1CC1)c1ccc(-c2cccnc2)o1 [Compound 30] equals 1.39

GET /value?item= O=C(NCC(F)(F)F)c1ccn(-c2cccnc2)c1 [Compound 36] &field=chromatographic logP returns 1.24

// Cc1nc(C(=O)NCC(F)(F)F)sc1-c1cccnc1 [Compound 47] : chromatographic logP value = 1.74

The molecule listed as Cc1c(C(=O)NCC(F)(F)F)ncn1-c1cccnc1 [Compound 50] shows chromatographic logP equal to 1.28

Form field chromatographic logP, entry O=C(NCC(F)(F)Br)c1ccc(-c2cccnc2)o1 [Compound 26] : 1.49

Kindly note the recorded chromatographic logP for CN(C)C(=O)C1CN=C(c2cncnc2)S1 (centres unmarked) [Compound 46] , which is 0.99

Just so you know, measured chromatographic logP for CCN(CC)C(=O)c1oc(-c2cccnc2)cc1C [Compound 24] came out at 1.58

So for O=C(NCC(F)(F)F)n1cnc(-c2cccnc2)c1 [Compound 1] , the logged chromatographic logP turned out to be 0.65

In plain terms, CC(F)(F)CNC(=O)c1cn(-c2cccnc2)nn1 [Compound 37] has a documented chromatographic logP of 1.21

GET /value?item= O=C(NCC(F)(F)F)c1nnc(-c2cccnc2)o1 [Compound 49] &field=chromatographic logP returns 1.21

The reported value for O=C(c1ccc(-c2cccnc2)o1)N1CCCC1 [Compound 10] in terms of chromatographic logP is 1.06

So for O=C(NCC=CCl)c1ccc(-c2cccnc2)o1 [Compound 18] , the logged chromatographic logP turned out to be 1.27

Form: molecule = CN(C)C(=O)c1ccc(-c2cccnc2)o1 [Compound 7] ; chromatographic logP = 0.51

So, CC(F)(F)CNC(=O)c1cc(-c2cccnc2)ns1 [Compound 38] ? Its chromatographic logP was 1.33

In plain terms, O=C(NCC1CCCCC1)c1ccc(-c2cccnc2)o1 [Compound 15] has a documented chromatographic logP of 2.02

Just so you know, measured chromatographic logP for CSCCNC(=O)c1nnc(-c2cccnc2)o1 [Compound 34] came out at 1.13

Consider O=C(NCc1cccs1)c1ccc(-c2cccnc2)o1 [Compound 17] . Its measured chromatographic logP is 1.46

Lab note: O=C(NCC(F)(F)F)C1CN=C(c2cncnc2)S1 (centres unmarked) [Compound 45] gave chromatographic logP of 1.4

Sample C=C(Cl)CNC(=O)c1ccc(-c2cccnc2)o1 [Compound 19] ; chromatographic logP observed: 1.28

// chromatographic logP lookup, molecule = N#CCNC(=O)c1csc(-c2cccnc2)n1 [Compound 14] , result: 0.8

// recorded chromatographic logP for CC(NC(=O)c1ccc(-c2cccnc2)o1)C1CC1 (centres unmarked) [Compound 8] : 1.36

For C#CCNC(=O)c1ccc(-c2cccnc2)o1 [Compound 22] the molecule record lists chromatographic logP as 0.72

Reported chromatographic logP of CSC[C@H](C)NC(=O)c1nnc(-c2cccnc2)o1 [Compound 35] : 1.39

Entry O=C(NCc1ncccn1)c1cc(-c2cccnc2)no1 [Compound 3] — recorded chromatographic logP = 0.62

Value of chromatographic logP reported for the molecule O=C(NCC(F)(F)F)c1coc(-c2cccnc2)c1 [Compound 12] is 1.13

Notebook: Cc1cc(-c2cccnc2)sc1C(=O)NCC(F)(F)F [Compound 5] , chromatographic logP read as 1.62

Entry CCN(C)C(=O)c1ccc(-c2cccnc2)o1 [Compound 11] ; chromatographic logP = 1

Notebook: CN(C)C(=O)c1cc(-c2cccnc2)no1 [Compound 2] , chromatographic logP read as 0.78

The molecule listed as CCN(CC)C(=O)c1ccc(-c2cccnc2)o1 [Compound 6] shows chromatographic logP equal to 1.23
